# test-summary: Displacement of [3H]DTG from sigma2 receptor in rat liver membrane homogenates
# Assay type: cell membranes
Please go through the items and note down their pKi.
Numbers only, as −log10 of the molar value.

Worked examples, 2 compounds total:
>  <smiles-repr>
O=C(c1ccc(OCCOCCF)cc1)C1CCN([C@@H]2Cc3ccccc3C[C@H]2O)CC1

>  <reading>
5.09

$$$$
>  <smiles-repr>
O=C(c1ccc(F)cc1)c1cccc2c1C[C@@H](N1CCC(c3ccccc3)CC1)[C@H](O)C2

>  <reading>
6.60

$$$$

## Input Can you look up the measured pKi of O=C(c1ccc(F)cc1)C1CCN([C@@H]2Cc3cccc(O)c3C[C@H]2O)CC1 for me?
## Output 5.59

====

# measurement-target: Vesicular acetylcholine transporter (Homo sapiens)
# Sequence (Q16572 whole entry): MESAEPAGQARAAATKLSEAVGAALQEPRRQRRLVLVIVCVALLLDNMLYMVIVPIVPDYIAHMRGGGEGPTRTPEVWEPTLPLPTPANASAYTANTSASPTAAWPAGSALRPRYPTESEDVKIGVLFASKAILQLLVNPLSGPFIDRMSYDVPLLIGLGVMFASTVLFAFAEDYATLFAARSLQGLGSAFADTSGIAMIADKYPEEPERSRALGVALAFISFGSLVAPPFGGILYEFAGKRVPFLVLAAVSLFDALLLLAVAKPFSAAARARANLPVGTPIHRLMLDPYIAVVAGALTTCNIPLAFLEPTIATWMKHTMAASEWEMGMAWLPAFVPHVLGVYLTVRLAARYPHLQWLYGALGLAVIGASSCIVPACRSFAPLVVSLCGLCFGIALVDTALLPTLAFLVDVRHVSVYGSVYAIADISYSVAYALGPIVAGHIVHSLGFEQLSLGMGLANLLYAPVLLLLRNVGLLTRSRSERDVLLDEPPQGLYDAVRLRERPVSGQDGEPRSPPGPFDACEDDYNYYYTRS
measured-metric: Ki (nM)
One number for each entry, in nM.

Worked examples, 4 compounds total:
>  <smiles-repr>
O=C(c1ccc(OCCOCCOCCF)cc1)C1CCN([C@@H]2Cc3ccccc3C[C@H]2O)CC1

>  <Ki [nM]>
1.23

$$$$
>  <smiles-repr>
O=C(c1ccc(OCCOCCF)cc1)C1CCN([C@@H]2Cc3ccccc3C[C@H]2O)CC1

>  <Ki [nM]>
0.87

$$$$
>  <smiles-repr>
O=C(c1ccc(F)cc1)C1CCN([C@@H]2Cc3c(O)cccc3C[C@H]2O)CC1

>  <Ki [nM]>
4.64

$$$$
>  <smiles-repr>
O=C(c1ccc(F)cc1)C1CCN([C@@H]2Cc3cccc(O)c3C[C@H]2O)CC1

>  <Ki [nM]>
56.2

$$$$

Would you kindly look at the next entry?
## Input Can you look up the measured Ki of O=C(c1ccc(OCCF)cc1)C1CCN([C@@H]2Cc3ccccc3C[C@H]2O)CC1 for me?
## Output 1.74

====

# measurement-target: Sigma non-opioid intracellular receptor 1 (Cavia porcellus, UniProt Q60492)
# Sequence (Q60492 whole entry): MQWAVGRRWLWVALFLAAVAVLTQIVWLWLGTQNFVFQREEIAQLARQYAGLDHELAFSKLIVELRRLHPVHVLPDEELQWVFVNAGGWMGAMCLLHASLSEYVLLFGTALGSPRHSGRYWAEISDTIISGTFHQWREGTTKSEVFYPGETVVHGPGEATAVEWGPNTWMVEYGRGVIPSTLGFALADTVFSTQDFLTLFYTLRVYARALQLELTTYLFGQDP
# test-summary: Displacement of (+)-[3H]pentazocine from sigma1 receptor in guinea pig brain membrane homogenates
# Type: cell membranes
Just a reminder that ties go to Not satisfied: only Ki strictly below 30 nM counts as Satisfied.

Some entries whose results are on file:
>  <molecule>
O=C(c1ccc(F)cc1)C1CCN([C@@H]2Cc3c(cccc3OCCF)C[C@H]2O)CC1 (racemic)

>  <measurement-target>
Sigma non-opioid intracellular receptor 1 (Cavia porcellus, UniProt Q60492)

>  <label-value>
Not satisfied

$$$$
>  <molecule>
O=C(c1ccc(OCCOCCOCCF)cc1)C1CCN([C@@H]2Cc3ccccc3C[C@H]2O)CC1

>  <measurement-target>
Sigma non-opioid intracellular receptor 1 (Cavia porcellus, UniProt Q60492)

>  <label-value>
Not satisfied

$$$$
>  <molecule>
O=C(c1ccc(OCCOCCF)cc1)C1CCN([C@@H]2Cc3ccccc3C[C@H]2O)CC1

>  <measurement-target>
Sigma non-opioid intracellular receptor 1 (Cavia porcellus, UniProt Q60492)

>  <label-value>
Not satisfied

$$$$
>  <molecule>
O=C(c1ccc(OCCF)cc1)C1CCN([C@@H]2Cc3ccccc3C[C@H]2O)CC1

>  <measurement-target>
Sigma non-opioid intracellular receptor 1 (Cavia porcellus, UniProt Q60492)

>  <label-value>
Satisfied

$$$$
>  <molecule>
O=C(c1ccc(F)cc1)C1CCN([C@@H]2Cc3c(O)cccc3C[C@H]2O)CC1

>  <measurement-target>
Sigma non-opioid intracellular receptor 1 (Cavia porcellus, UniProt Q60492)

>  <label-value>
Not satisfied

$$$$
>  <molecule>
O=C(c1ccc(F)cc1)C1CCN([C@@H]2Cc3cccc(O)c3C[C@H]2O)CC1

>  <measurement-target>
Sigma non-opioid intracellular receptor 1 (Cavia porcellus, UniProt Q60492)

>  <label-value>
Satisfied

$$$$

Then this molecule:
## Input Would you kindly verify if Ki of O=C(c1ccc(F)cc1)C1CCN([C@@H]2Cc3cccc(OCCF)c3C[C@H]2O)CC1 (racemic) is strictly less than 30 nM?
## Output Not satisfied
